Tested on: Blood
Assay: Genotoxicity in mouse peripheral blood by micronucleus test
Assay type: toxicity, tissue-based
endpoint label: Activity

molecule	Activity
O=C1c2ccccc2C(=O)N1c1cccc(CO[N+](=O)[O-])c1	Non-toxic
O=C1c2ccccc2C(=O)N1CO[N+](=O)[O-]	Non-toxic
O=C1c2ccccc2C(=O)N1c1ccc(CO[N+](=O)[O-])cc1	Non-toxic
O=C1c2ccccc2C(=O)N1CCO[N+](=O)[O-]	Non-toxic
O=C1c2ccccc2C(=O)N1c1ccc(CCO[N+](=O)[O-])cc1	Non-toxic

Now examine the next entry.
### Prompt Output reported Activity of the molecule O=C1CCC(N2C(=O)c3ccccc3C2=O)C(=O)N1CO[N+](=O)[O-] (stereo unspecified) on Blood.
### Response Non-toxic

###

Tested on: Salmonella typhimurium
Assay: Mutagenic activity in Salmonella Typhimurium TA100 preincubated for 20 to 30 mins
Type: toxicity, organism-based
Details: salmonella enterica subsp. enterica serovar typhimurium
endpoint label: Activity

molecule	Activity
O=C1CCC(N2C(=O)c3ccccc3C2=O)C(=O)N1CO[N+](=O)[O-] (stereo unspecified)	Non-toxic
O=C1c2ccccc2C(=O)N1c1ccc(CCO[N+](=O)[O-])cc1	Non-toxic
O=C1c2ccccc2C(=O)N1CO[N+](=O)[O-]	Non-toxic
O=C1c2ccccc2C(=O)N1CCO[N+](=O)[O-]	Non-toxic
O=C1c2ccccc2C(=O)N1c1cccc(CO[N+](=O)[O-])c1	Non-toxic

Now examine the next entry.
### Prompt Output reported Activity of the molecule O=C1c2ccccc2C(=O)N1c1ccc(CO[N+](=O)[O-])cc1 on Salmonella typhimurium.
### Response Non-toxic

Where do these numbers come from? They come from ChEMBL document CHEMBL1821727.
